The reported measurements were obtained from patent US8338565B2.

Target: TNFα / TNFα receptor (TNFα R1/Fc) (Homo sapiens, UniProt P01375)
Construct: purchased R&D Systems
Sequence (P01375 77-233 limits assumed, species assumed): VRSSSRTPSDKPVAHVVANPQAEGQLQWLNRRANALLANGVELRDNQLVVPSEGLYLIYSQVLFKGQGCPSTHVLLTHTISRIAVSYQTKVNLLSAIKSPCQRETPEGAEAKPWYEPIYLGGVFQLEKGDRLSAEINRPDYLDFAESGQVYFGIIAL
Experiment: Inhibition of binding of TNFα to the TNFα receptor (plate ELISA competition)
Settings: Table 2; read-out: Activity (IC50, inhibition of TNFα binding to TNFα R1/Fc)
readout.name: IC50

Provide measured IC50 on TNFα / TNFα receptor (TNFα R1/Fc) (Homo sapiens, UniProt P01375) for `O=C1COc2ccc(cc2)C[C@@H](C(=O)O)NC(=O)[C@H](CCc2ccccc2)NC(=O)[C@@H](Cc2ccc(-c3ccccc3)cc2)NC(=O)[C@H](Cc2cccc(C(F)(F)F)c2)N1` please.
10 to 30 µM

Provide measured IC50 on TNFα / TNFα receptor (TNFα R1/Fc) (Homo sapiens, UniProt P01375) for `O=C1COc2ccc(cc2)C[C@@H](C(=O)O)NC(=O)[C@H](Cc2ccccc2)NC(=O)[C@H](Cc2ccc(-c3ccc(Cl)cc3)cc2)NC(=O)[C@H](Cc2cccs2)N1` please.
30 to 100 µM

Provide measured IC50 on TNFα / TNFα receptor (TNFα R1/Fc) (Homo sapiens, UniProt P01375) for `O=C1COc2ccc(cc2)C[C@@H](C(=O)O)NC(=O)[C@H](CCc2ccccc2)NC(=O)[C@@H](Cc2ccc(-c3ccccc3)cc2)NC(=O)[C@H](Cc2ccco2)N1` please.
< 10 µM

---

Molecular target: TNFα / TNFα receptor (TNFα R1/Fc) (Homo sapiens)
Construct: purchased R&D Systems
Test: Inhibition of binding of TNFα to the TNFα receptor (plate ELISA competition)
Details: Table 2; read-out: Activity (IC50, inhibition of TNFα binding to TNFα R1/Fc)
pIC50: −log10 of the molar value. Numbered stars: 1 amine (or outer) side, 2 acyl side, 3 side chain; on linkers, the order of the positions; unused ones are H or OH. Bridge positions count the residues as written; N and C are the ends. Square brackets hold non-standard residues; d marks the D form. Peptide text beside a SMILES is read from it. Phe(4-CF3) = N[C@@H](Cc1ccc(C(F)(F)F)cc1)C(=O)O; Bip = N[C@@H](Cc1ccc(-c2ccccc2)cc1)C(=O)O; dPhe(3-Cl) = N[C@H](Cc1cccc(Cl)c1)C(=O)O; Phe(4-NH2) = Nc1ccc(C[C@H](N)C(=O)O)cc1; dAla(2-furyl) = N[C@H](Cc1ccco1)C(=O)O; d2Thi = N[C@H](Cc1cccs1)C(=O)O; dPhg = N[C@@H](C(=O)O)c1ccccc1; Suc = O=C(CCC(=O)[*:2])[*:1]; NMeA = CN[C@@H](C)C(=O)O
readout.name: pIC50

Provide measured pIC50 on TNFα / TNFα receptor (TNFα R1/Fc) (Homo sapiens) for `O=C1COc2ccc(cc2)C[C@@H](C(=O)O)NC(=O)[C@@H](Cc2ccc(C(F)(F)F)cc2)NC(=O)[C@H](Cc2ccc(-c3ccccc3)cc2)NC(=O)[C@@H](Cc2cccs2)N1` please.
< 4.00

Provide measured pIC50 on TNFα / TNFα receptor (TNFα R1/Fc) (Homo sapiens) for O=C1CCC(=O)N[C@H](Cc2cccs2)C(=O)N[C@@H](Cc2ccc(-c3ccccc3)cc2)C(=O)N[C@H](c2ccccc2)C(=O)N[C@H](C(=O)O)Cc2ccc(cc2)N1 [Compound 76] ([d2Thi][Bip][dPhg][Phe(4-NH2)]-OH; linker N-4 via Suc) please.
4.52 to 5.00

Provide measured pIC50 on TNFα / TNFα receptor (TNFα R1/Fc) (Homo sapiens) for `O=C1N[C@H](CCc2ccccc2)C(=O)N[C@@H](C(=O)O)Cc2ccc(cc2)NC(=O)[C@H](O)[C@@H](O)C(=O)N[C@H](Cc2ccccc2)C(=O)N[C@H]1Cc1ccc(Cl)cc1Cl` please.
> 5.00

Provide measured pIC50 on TNFα / TNFα receptor (TNFα R1/Fc) (Homo sapiens) for O=C1CCC(=O)N[C@H](Cc2ccco2)C(=O)N[C@@H](Cc2ccc(-c3ccccc3)cc2)C(=O)N[C@H](Cc2ccccc2)C(=O)N[C@H](C(=O)O)Cc2ccc(cc2)N1 [Compound 123] ([dAla(2-furyl)][Bip][dF][Phe(4-NH2)]-OH; linker N-4 via Suc) please.
4.00 to 4.52

Provide measured pIC50 on TNFα / TNFα receptor (TNFα R1/Fc) (Homo sapiens) for `O=C1COc2ccc(cc2)C[C@@H](C(=O)O)NC(=O)[C@H](CCc2ccccc2)NC(=O)[C@@H](Cc2ccc(-c3ccccc3)cc2)NC(=O)[C@H](CCCc2ccccc2)N1` please.
> 5.00

Provide measured pIC50 on TNFα / TNFα receptor (TNFα R1/Fc) (Homo sapiens) for `O=C1COc2ccc(cc2)C[C@@H](C(=O)NCCCS(=O)(=O)O)NC(=O)[C@H](CCc2ccccc2)NC(=O)[C@@H](Cc2ccc(-c3ccccc3)cc2)NC(=O)[C@H](Cc2cccs2)N1` please.
< 4.00

Provide measured pIC50 on TNFα / TNFα receptor (TNFα R1/Fc) (Homo sapiens) for `O=C1CCCc2cn(nn2)C[C@@H](C(=O)O)NC(=O)[C@@H](Cc2ccccc2)NC(=O)[C@H](Cc2ccc(C(F)(F)F)cc2)NC(=O)[C@@H](CCc2ccccc2)N1` please.
< 4.00

Provide measured pIC50 on TNFα / TNFα receptor (TNFα R1/Fc) (Homo sapiens) for `O=C(O)[C@@H]1Cc2ccc(cc2)NC(=O)[C@H](O)[C@@H](O)C(=O)N[C@H](Cc2cccs2)C(=O)N[C@@H](Cc2ccc(-c3ccncc3)cc2)C(=O)N[C@H](Cc2ccccc2)C(=O)N1` please.
> 5.00

Provide measured pIC50 on TNFα / TNFα receptor (TNFα R1/Fc) (Homo sapiens) for `O=C1COc2ccc(cc2)C[C@@H](C(=O)O)NC(=O)[C@@H](CCc2ccccc2)NC(=O)[C@H](Cc2ccc(-c3ccc(C(=O)OCc4ccccc4)cc3)cc2)NC(=O)[C@@H](Cc2cccs2)N1` please.
< 4.00

Provide measured pIC50 on TNFα / TNFα receptor (TNFα R1/Fc) (Homo sapiens) for O=C1CCC(=O)N[C@H](Cc2cccc(Cl)c2)C(=O)N[C@@H](Cc2ccc(C(F)(F)F)cc2)C(=O)N[C@H](Cc2ccccc2)C(=O)N[C@H](C(=O)O)Cc2ccc(cc2)N1 [Compound 133] ([dPhe(3-Cl)][Phe(4-CF3)][dF][Phe(4-NH2)]-OH; linker N-4 via Suc) please.
4.00 to 4.52

Provide measured pIC50 on TNFα / TNFα receptor (TNFα R1/Fc) (Homo sapiens) for C[C@@H](C(=O)O)N(C)C(=O)[C@@H]1Cc2ccc(cc2)NC(=O)CCC(=O)N[C@H](Cc2cccs2)C(=O)N[C@@H](Cc2ccc(-c3ccccc3)cc2)C(=O)N[C@H](Cc2ccccc2)C(=O)N1 [Compound 30] ([d2Thi][Bip][dF][Phe(4-NH2)][NMeA]-OH; linker N-4 via Suc) please.
4.52 to 5.00

Provide measured pIC50 on TNFα / TNFα receptor (TNFα R1/Fc) (Homo sapiens) for `O=C1COc2ccc(cc2)C[C@@H](C(=O)N[C@@H](Cc2ccccc2)C(=O)O)NC(=O)[C@H](CCc2ccccc2)NC(=O)[C@@H](Cc2ccc(-c3ccccc3)cc2)NC(=O)[C@H](Cc2ccc(-c3ccccc3)cc2)N1` please.
< 4.00
